Tested on: PC-3
test_name: NCI tumour cell line growth inhibition, 48 h
Activity calls are given as the source filed them. Rule as the data show it: active = GI50 up to about 1.1 µM and inactive = higher.
Listing of recorded GI50 by entry.

{"molecule": "O=C1c2cc3c(cc2CC12Cc1cc4c(cc1C2=O)CCC4)CCCC3 (centres undefined)", "GI50": "> 100 µM (inactive)"}
{"molecule": "O=C1CCSSCCC(=O)Nc2ccccc2N1", "GI50": "> 100 µM (inactive)"}
{"molecule": "OCCCCCNc1nc(O)c2[nH]cnc2n1", "GI50": "> 100 µM (inactive)"}
{"molecule": "COc1cccc2cc(C(C)=O)c(=O)oc12", "GI50": "> 100 µM (inactive)"}
{"molecule": "N#CCCN(CCCN(C(=O)Nc1ccc(NC(=O)N(CCCN(CCC#N)C(N)=O)c2ccccc2)cc1)c1ccccc1)C(N)=O", "GI50": "> 100 µM (inactive)"}
{"molecule": "COc1cc(CCCOC(=O)/C=C/c2ccc(O)c(O)c2)cc(O)c1O", "GI50": "32.4 µM (inactive)"}
{"molecule": "NCCCNOCCCN", "GI50": "> 100 µM (inactive)"}
{"molecule": "O=[N+]([O-])c1ccc2nc(O)c(/C=C(\\O)c3ccccc3)nc2c1", "GI50": "28.8 µM (inactive)"}
{"molecule": "O=C(O)c1ccccc1C(=O)c1ccc2c(c1)Cc1ccccc1-2", "GI50": "66.4 µM (inactive)"}
{"molecule": "CCNc1ncnc2c1nnn2CC", "GI50": "> 100 µM (inactive)"}
{"molecule": "[O-][S+]1CC[S+]([O-])CC[S+]([O-])CC1 (centres undefined)", "GI50": "> 100 µM (inactive)"}
{"molecule": "CCCCCCCCCCCCOCC(COP(=O)(O)OCCN=[N+]=[N-])OC(=O)CCCCCCCCCCC (centres undefined)", "GI50": "> 100 µM (inactive)"}
{"molecule": "Cc1ccc2c(c1)S(=O)(=O)c1ccc3ccccc3c1N2", "GI50": "> 100 µM (inactive)"}
{"molecule": "CCN1C2=NCCN2S(=O)(=O)c2ccccc21", "GI50": "> 100 µM (inactive)"}
{"molecule": "CC1(C)CO[P@@](=S)(c2ccccn2)O[C@@H]1c1ccccc1", "GI50": "> 100 µM (inactive)"}
{"molecule": "O=C1N[C@H](C(=O)O)[C@@H](c2ccc(OCc3ccccc3)cc2)O1", "GI50": "> 100 µM (inactive)"}
{"molecule": "CSC1=C(C#N)C(=O)N(c2ccc(C)cc2)C(=S)C1C#N (centres undefined)", "GI50": "> 100 µM (inactive)"}
{"molecule": "CN(C(=S)Cc1ccc(Cl)c(Cl)c1)C1CCCC[C@@H]1N1CCCC1 (some centres undefined)", "GI50": "31.4 µM (inactive)"}
{"molecule": "CC1C/C(=N\\N(C)C)C(C#N)(C#N)C1(C#N)C#N (centres undefined)", "GI50": "20.8 µM (inactive)"}
{"molecule": "O=C1/C(=C\\c2ccc(Cl)cc2Cl)Sc2scc(-c3cccc([N+](=O)[O-])c3)[n+]21", "GI50": "15.6 µM (inactive)"}
{"molecule": "N#C[BH2-][n+]1ccc(C(=O)NNCc2ccc(F)cc2)cc1", "GI50": "> 100 µM (inactive)"}
{"molecule": "O/N=C1/CCCc2nonc21", "GI50": "> 100 µM (inactive)"}
{"molecule": "[O-][n+]1nc(N2CCOCC2)nc2ccccc21", "GI50": "> 100 µM (inactive)"}
{"molecule": "Nc1ncnc2c1ccn2CC#CCO", "GI50": "> 100 µM (inactive)"}
